Data origin, for the record: ChEMBL document CHEMBL1765085

Tested on: A549
experiment_notes: Cytotoxicity in human A549 cells assessed as cell viability after 48 hrs by MTT assay
Format: functional, cell-based
applied_conditions: A549, 48 h
measured_quantity: IC50

[[record]]
substance_smiles = "C=C(CC[C@@H](C(=O)O)[C@H]1[C@H](O)C[C@@]2(C)C3=C(CC[C@]12C)[C@@](C)(CCC(=O)O)[C@H](C(=C)C)CC3)C(C)C"
system_name = "A549"
measured_quantity = "IC50"
observed = "> 100 µM"

[[record]]
substance_smiles = "C=C(CC[C@@H](C(=O)O)[C@H]1[C@H](O)C[C@@]2(C)C3=CC[C@@H](C(=C)C)[C@](C)(CCC(=O)O)C3=CC[C@]12C)C(C)C"
system_name = "A549"
measured_quantity = "IC50"
observed = "> 100 µM"

[[record]]
substance_smiles = "C=C(C)[C@@H]1CCC2=C(CC[C@]3(C)[C@@H]([C@@H](CCC=C(C)C)C(=O)O)[C@H](O)C[C@@]23C)[C@@]1(C)CCC(=O)O"
system_name = "A549"
measured_quantity = "IC50"
observed = "> 100 µM"


Query compound follows.
Measured IC50 (A549), entry `C=C(CC[C@@H](CO)[C@H]1[C@H](O)C[C@@]2(C)C3=CC[C@H]4C(C)(C)[C@H](O)CC[C@]4(C)C3=CC[C@]12C)C(C)(C)O` : > 100 µM
